Assay: growth suppression of yeast trafficking mutant, preliminary HTS, modulators of trafficking downstream of Golgi apparatus project, 1536-format plate, OD 615 nm (AID 637)
Details: yeast transport mutant growth, absorbance 615 nm, 18 h; active compounds read high
Calls of active or inactive are those of the source. Cut-off read from the data, not from the text of the source: active = inhibition above about 30%; inactive = the rest.
Property name: inhibition

Value of measured inhibition for the entry `Cc1cn2c(-c3ccc(Cl)cc3)nnc2s1` : 4.67% (inactive)

Query COc1ccc(C2C(C#N)=C(C)NC3=C2C(=O)CC(C)(C)C3)c(OC)c1 (stereo unspecified) yields inhibition of -2.7% (inactive)

Sure, the documented inhibition for `CCc1cccc(NC(=O)Cn2cc3c(n2)CCCC3)c1` is -3.11% (inactive)

Record CC1CCc2nn(CC(=O)NCc3ccc4c(c3)OCO4)cc2C1 (stereo unspecified) . Reported inhibition: 2.79% (inactive)

Field inhibition (entry `COc1ccc(N2Cc3ccccc3C2)cc1Cl` ) reads -9.17% (inactive)

Looking up `O=C(Nc1ccc2c(c1)OCCO2)NC1CCCCC1` , I see its inhibition listed as -1.13% (inactive)

Reported inhibition for `CCOC(=O)CSc1nnc(Cn2c(=O)sc3ccccc32)n1C` was -2.5% (inactive)

COc1ccc(OC)c(C2C(C(=O)Nc3ccc(F)cc3)=C(C)Nc3nc(CCCO)nn32)c1 (stereo unspecified) yielded inhibition of -0.83% (inactive)

The compound listed as `CCn1c(=O)cc(OCC(=O)Nc2nc(C)cs2)c2ccccc21` has a reported inhibition of -1.67% (inactive)

Reported inhibition of `C(=N\c1c(-c2ccccc2)nc2n1CCS2)/c1ccccc1` : -6% (inactive)

The recorded inhibition for `CCN(CC)C(=O)COc1ccc2oc(C)c(C(=O)OC(C)C)c2c1` is -6% (inactive)

* * *

Test: S. cerevisiae growth inhibition in restrictive medium, OD615, pilot screen, restrictive growth control, yeast lifespan reduction project (AID 706);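 note: modified DeaD lifespan yeast strain shifted to restrictive glucose medium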
Details: OD615, 48 h, at 10 µM, active compounds read high
Property name: growth inhibition (%)
Just the number please, in %, no unit attached.

Field growth inhibition (entry `CCOC(=O)N1CCN(C(=O)CN(C2CCCCC2)S(=O)(=O)c2ccc(F)cc2)CC1` ) reads -5.59

# growth inhibition of `CCCN(CC1CC1)S(=O)(=O)c1ccc(S(N)(=O)=O)cc1` = 0.87

Looking up `COc1cc(C(=O)Nc2cccc(-c3nncn3C)c2)cc(OC)c1OC` , I found its growth inhibition recorded as 4.63

Entry CC1(C(=O)NCc2cccnc2)CCC(=O)N1CCc1ccccc1 (stereo unspecified) ; growth inhibition = 3.93

The molecule listed as `Cn1c(=O)c(=O)n(C)c2cc(S(=O)(=O)CCC(=O)N3CCOCC3)ccc21` shows growth inhibition equal to -4.52

Note to self: growth inhibition recorded for `CCN1CCN(c2nc(C)nc3c2sc(=S)n3C)CC1` was -5.22

Briefly, growth inhibition measured for `COc1ccccc1N1CCN(c2nc(N)c(C#N)c(CC#N)c2C#N)CC1` : -0.44

The molecule CCOCCCNC(=O)C(c1ccc(C)cc1)N(Cc1ccc2c(c1)OCO2)C(=O)CNC(C)=O (stereo unspecified) showed growth inhibition equal to 0.77

response.value for `COC(=O)c1nnc(-c2ccccc2)c(-c2ccccc2)n1` (field: growth inhibition) = -24.7

response.value for COc1ccc2c(c1)OC1(C)CC2C(C(=O)c2ccccc2OC)C(=O)N1 (stereo unspecified) (field: growth inhibition) = -9.23

For CCN=C(Nc1ccc2c(c1)OCO2)SC1CC(=O)N(c2ccccc2F)C1=O (stereo unspecified) the molecule record lists growth inhibition as -8.21

The reported measurements were obtained from PubChem BioAssay.
